Test system: IGROV1 ovarian
Test: NCI tumour cell line growth inhibition, 48 h
Reported Property: GI50

Molecule	Tested On	Assay Result
COC(=O)[C@@H](Cc1c[nH]c2ccccc12)NC(=O)/C=C/c1ccccc1	IGROV1 ovarian	7.07 µM
COc1ccccc1CNC(=O)C1c2ccccc2C(=O)N(CC(C)C)C1c1cccs1 (stereo not drawn)	IGROV1 ovarian	22.4 µM
COc1cc(/C=C2\CC3C4CC=C5C[C@@H](N6CCCC6)CC[C@]5(C)C4CC[C@]3(C)[C@H]2OC(C)=O)ccc1OCCN1CCCCC1 (stereo partly drawn)	IGROV1 ovarian	1.59 µM
CCOC(=O)c1cc2cc(NC(=O)c3cc4cc([N+](=O)[O-])ccc4n3C)ccc2n1C	IGROV1 ovarian	> 100 µM
CCCC(=O)NC(c1ccc2c(c1)OCO2)c1ccc2cccnc2c1O (stereo not drawn)	IGROV1 ovarian	0.888 µM
NC(N)=N/N=C/c1cccc(Cl)c1Cl	IGROV1 ovarian	11 µM
CCN(CC)CCCCCOc1cc(O)c2c(=O)cc(-c3ccccc3)oc2c1	IGROV1 ovarian	2.08 µM
CCOC(=O)CNC(=O)CCCn1c(=O)c2c3ccccc3n(C)c2n2nnc(-c3ccccc3)c12	IGROV1 ovarian	8.87 µM

Entry source: PubChem BioAssay (NCI)
